System: HepG2
Experiment: GSK_TCMDC: Percent inhibition of human HepG2 cell line. Test compounds present at 10uM.
Assay type: functional
endpoint: Inhibition (%)
Express it in %; write the number only.

Solved cases (3 shown):
{"columns": ["molecule", "tested.system", "endpoint", "experimental.result"],
 "data": [
  ["CC1(C)OC[C@]2(C)[C@@H](CC[C@]3(C)C4=CC(=O)CCC4CC[C@@H]23)O1 (some centres undefined)", "HepG2", "Inhibition", 0],
  ["N#Cc1ccc(C(=O)NC2CCN(CCCCCNC(=O)/C=C/c3ccc(Cl)c(Cl)c3)CC2)cc1", "HepG2", "Inhibition", 13],
  ["O=C(/C=C/c1ccc(Cl)c(Cl)c1)NCCCCCCN1CCN(C(=O)Nc2cc(Cl)nc(Cl)c2)CC1", "HepG2", "Inhibition", 15]
]}

Next molecule, please.
Briefly, Inhibition measured for O=C(Nc1ccnc(N2CC3CC2CN3Cc2cccc(O)c2)c1)c1ccc(F)cc1.O=C(O)C(F)(F)F (centres undefined) : 2

---

Entries and their Inhibition
System: Plasmodium falciparum
Experiment: GSK_TCMDC: Inhibition of Plasmodium falciparum 3D7 in whole red blood cells, using parasite LDH activity as an index of growth. Test compounds present at 2uM
Format: functional
Numeric answer only, unit % assumed.

For orientation, consider the following solved cases.
{"columns": ["compound", "endpoint", "experimental.result"],
 "data": [
  ["Cc1ccccc1-c1cc(=O)c2cc(NC(=O)c3cccs3)ccc2o1", "Inhibition", 96],
  ["CC(=O)c1ccc(NC(=O)Nc2ccc(N(C)c3ccnc(NC4CC4)n3)cc2)cc1", "Inhibition", 100],
  ["O=C(Nc1ccc(CN2CCCCC2)cc1)c1ccc(COc2ccc([N+](=O)[O-])cc2)o1", "Inhibition", 86],
  ["Cc1nc(N)nc(N)c1OCCCCOc1ccccc1.Cl.O", "Inhibition", 94],
  ["O=C(Nc1ccc2c(c1)CCC2)c1cccc(N2CCN(c3ccncc3)CC2)c1.O=C(O)C(F)(F)F", "Inhibition", 92]
]}

Looking up `N#Cc1ccc(N(CCNS(=O)(=O)c2cc(Br)c(Cl)s2)Cc2ccccc2C(F)(F)F)cc1C(F)(F)F` , I found its Inhibition recorded as 92

`Cc1cc(N[C@@H](Cc2ccccc2)C(=O)NC2CCCC2)nc(NCCc2cccs2)n1.O=C(O)C(F)(F)F` has a reported Inhibition of 99

For record `CN1CCCN(Cc2ccc(-c3cccc(NC(=O)c4cccc(Cl)c4)c3)cc2)CC1.O=C(O)C(F)(F)F` the listed Inhibition is 100

Inhibition for `CCNC(=O)Nc1cccc(-c2ccc(-c3nc4cccc(C)c4[nH]3)s2)c1` is 96

---

Collected Inhibition values appear next to each entry.
System: HepG2
Assay: GSK_TCMDC: Percent inhibition of human HepG2 cell line. Test compounds present at 10uM.
Format: functional
Field format: number, assumed %, no unit text.

Example cases with answers are listed next.
{"columns": ["molecule", "unit.info", "Inhibition"],
 "data": [
  ["COc1ccc2c(=NN=Cc3ccccc3Cl)cc(C)[nH]c2c1", "%", 5],
  ["Cc1cc(N[C@@H](Cc2ccccc2)C(=O)Nc2ccccc2)nc(NCCc2cccnc2)n1.O=C(O)C(F)(F)F", "%", 32],
  ["Cc1cc(C2CCN(CCCCNC(=O)c3ccc(NC(=O)c4ccc(Cl)cc4)cc3)CC2)c(C)cc1OCc1nccn1C.Cl", "%", 18]
]}

Recorded result, `Cc1c(F)cc(C(=O)NC2CC2)cc1-c1ccc2c(c1)c(C)nn2S(=O)(=O)c1cccs1` , Inhibition: 34

Quick note, Inhibition for `CCOc1c(Br)cc(Br)cc1CNCCCCNc1nc2ccccc2[nH]1` landed at 25

Reference source for all entries: ChEMBL document CHEMBL1157539
